Assay: Neurotoxicity of inhibitor peptides alone in neuronal cell culture (cell count)
Format: cell-based
Settings: neuronal cell culture, 48 Hour Incubation; 10X; read-out: % Survival
quantity.measured: viability at 48 h
I'd appreciate it if you included the unit after the number.

Measured viability at 48 h, H-RGTFEGKF-NH2 [SEQ ID NO: 1] : 91.7%
